Assay: chemical genetic growth profiling, strain panel (AID 1159580);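 also: tested at 20 µM; growth read once vehicle control cultures reached saturation at 30 °C; 1 = growth at the plate median or of vehicle wells; lower values mean less growth of the strain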
Conditions: S. cerevisiae deletion strains, growth OD, locus YLR113W, strain HOG1, active compounds read low
The whole screen tested about 5,500 compounds, of which about 2,000 (36%) were called active. About 18% were inconclusive and are not listed. The list shows a part of the results.
Property measured: normalized growth
Number, no unit, nothing else.

Use these answered entries as a reference point.
- Compound: "CCn1cc(C(=O)O)c(=O)c2cc(F)c(N3CCNC(C)C3)c(F)c21 (stereo unspecified)"
  normalized growth: 1.06
- Compound: "CN(C)CCN(Cc1cccs1)c1ccccn1"
  normalized growth: 0.995
- Compound: "O=C(c1csc(-c2ccc(Cl)cc2)c1)N1CCCCC1"
  normalized growth: 0.711

Data point: COc1c(N2CCNC(C)C2)c(F)cc2c(=O)c(C(=O)O)cn(C3CC3)c12 (stereo unspecified) ; normalized growth = 1.03

For this compound ( `CN(C)CCN(Cc1ccccc1)c1ccccn1` ), measured normalized growth is 0.909

The recorded normalized growth for entry `Cc1[nH]c2ccccc2c1CN(C)C` equals 1
